These entries and their values trace back to PubChem BioAssay (Tox21).

protocol-notes: qHTS assay to identify small molecule agonists of the estrogen receptor alpha (ER-alpha) signaling pathway in the presence of an antagonist - cell viability counter screen (AID 1259386);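 further: cells exposed to compounds for 22 h at 37 °C before the viability read; on the % scale 0 is the no-effect control and ±100 the full control effect; nearly all actives have a fitted effect of over 30% in size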
condition-set: VM7Luc4E2 viability, CellTiter-Fluor fluorescence, 22 h; series mostly up to 92.4 µM
From the text: National Center for Advancing Translational Sciences [NCATS] NIH Chemical Genomics Center [NCGC] U.S. Environmental Protection Agency [EPA] National Institutes of Environmental Health Sciences [NIEHS] National Toxicology Program [NTP] U.S. Food and Drug Administration [FDA] Estrogen receptor (ER), a member of nuclear hormone receptor plays an important role in development, metabolic homeostasis and reproduction. […]
Records with an inconclusive call do not appear. The source made the active and inactive calls. The call rests on the fitted dose curve; in most records, active means well fitted cell-killing curve with a large enough effect in the repeat runs; inconclusive means weak or mixed curves, or effect the other way; inactive means no such curve, though single readings can be large or run the other way.

{"columns": ["molecule", "activity change, negative = cytotoxicity"],
 "data": [
  ["CCC(=O)OCc1ccccc1", "inactive"],
  ["Cc1ccc(C(=O)Nc2ccc(S(=O)(=O)O)c3cc(S(=O)(=O)O)cc(S(=O)(=O)O)c23)cc1NC(=O)c1cccc(NC(=O)Nc2cccc(C(=O)Nc3cc(C(=O)Nc4ccc(S(=O)(=O)O)c5cc(S(=O)(=O)O)cc(S(=O)(=O)O)c45)ccc3C)c2)c1", "inactive"],
  ["CCCCN1C=CN(C)C1", "0.508% [at 19 µM] (inactive)"]
]}
